Each entry below carries its recorded AC50.
System name: Cytochrome P450 3A4 (Homo sapiens, UniProt P08684);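 note: CYP3A4 tested as one member of a cytochrome P450 panel screen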
Sequence (P08684 whole entry): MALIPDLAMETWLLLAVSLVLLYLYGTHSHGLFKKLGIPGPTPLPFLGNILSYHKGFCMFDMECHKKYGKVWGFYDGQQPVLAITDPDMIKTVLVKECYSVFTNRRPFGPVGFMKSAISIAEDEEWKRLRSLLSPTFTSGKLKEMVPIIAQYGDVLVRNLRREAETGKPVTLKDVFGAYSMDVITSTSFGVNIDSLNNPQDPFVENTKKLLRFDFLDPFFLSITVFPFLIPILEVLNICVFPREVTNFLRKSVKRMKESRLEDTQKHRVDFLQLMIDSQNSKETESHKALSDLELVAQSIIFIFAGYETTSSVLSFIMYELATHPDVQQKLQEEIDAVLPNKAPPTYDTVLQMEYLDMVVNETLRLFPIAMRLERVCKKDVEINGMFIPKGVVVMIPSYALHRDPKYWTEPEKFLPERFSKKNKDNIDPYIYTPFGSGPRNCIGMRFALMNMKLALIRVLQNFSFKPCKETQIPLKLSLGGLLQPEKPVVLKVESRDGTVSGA

Reported AC50 ( COc1cccc([C@H](O)Cn2cc(-c3cccc(CON=C(C)C)c3)nn2)c1 ) = 3.98 µM (inconclusive)

Reported AC50 ( CCOc1ccc2c(c1)C(C)=CC(C)(C)N2 ) = 12.6 µM (inconclusive)

Reported AC50 ( CC(C)CN1CCCC2(CCN(C(=O)c3csnn3)CC2)C1 ) = 31.6 µM (inconclusive)

Reported AC50 ( O=S(=O)(NCc1cc(-c2ccccc2Cl)no1)c1ccc(Cl)cc1 ) = 20 µM (inconclusive)

Reported AC50 ( CCCCc1ccc(-c2nc(NC(=O)C3C4CCC(O4)C3C(=O)O)sc2C)cc1 (stereo unspecified) ) = 14.1 µM (inconclusive)

Reported AC50 ( O=C(Nc1nc2ccccc2n1CCN1CCCCC1)C1CCCCC1 ) = 17.8 µM (inconclusive)

Reported AC50 ( C/C(=C(/CCO)SSC[C@@H]1CCCO1)N(C=O)Cc1cnc(C)nc1N ) = 10 µM (inconclusive)

Reported AC50 ( CCCC1(C(=O)OC)C=C2C(=C(C)C(=O)C2C)CN1 (stereo unspecified) ) = 39.8 µM (inconclusive)

Data provenance: ChEMBL document CHEMBL1201862
